For each entry below, report its switch fluorescence ratio value.
- System: ATP;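 further: ATP exposure 15 min at 22 °C before imaging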
- TEST PROTOCOL: switch fluorescence ratio, 500 uM ATP over buffer (Cy3 cluster intensity, sum of 5 cycles each) (fold (ratio)); higher = stronger signal-on switching upon ATP binding; sequences stand for … in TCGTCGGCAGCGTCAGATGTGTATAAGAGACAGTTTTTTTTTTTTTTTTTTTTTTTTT…TC
- STATED CONDITIONS: aptamer strand: ATP DNA aptamer (quencher-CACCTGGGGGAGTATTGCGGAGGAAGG + anchor), 100 nM annealed; ATP concentration: 500 uM

response.value for GTTGTCGCTT (field: switch fluorescence ratio) = 0.981

response.value for ATATGGTAGT (field: switch fluorescence ratio) = 1.03

response.value for TGTGAAGTTT (field: switch fluorescence ratio) = 0.96

response.value for ATAGGGTCCG (field: switch fluorescence ratio) = 0.977

response.value for CTCCCTGGGT (field: switch fluorescence ratio) = 1.4

response.value for GCAATTCCGG (field: switch fluorescence ratio) = 1.21

response.value for GCGGGGACGG (field: switch fluorescence ratio) = 1.07

response.value for TGATTTTCCA (field: switch fluorescence ratio) = 0.988

response.value for TTGTTTTAC (field: switch fluorescence ratio) = 1.05

response.value for TAGATGGGGC (field: switch fluorescence ratio) = 0.967

response.value for GTGCAAGGCG (field: switch fluorescence ratio) = 0.988

response.value for CGCGGGGGGT (field: switch fluorescence ratio) = 0.992

response.value for AGGATTGGGT (field: switch fluorescence ratio) = 0.99

response.value for TACGTGGGGC (field: switch fluorescence ratio) = 1.01

response.value for CACGCAAGTG (field: switch fluorescence ratio) = 1.03

response.value for TTGTTCCCGT (field: switch fluorescence ratio) = 0.984

response.value for TACCAGTGCT (field: switch fluorescence ratio) = 1.07

response.value for GAAAAAGACT (field: switch fluorescence ratio) = 1.04

response.value for AGAGGCCATC (field: switch fluorescence ratio) = 0.983

response.value for CGTCCTGGGT (field: switch fluorescence ratio) = 0.995

response.value for AACTTGGGGA (field: switch fluorescence ratio) = 0.966

----------
- System: ATP;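 further: ATP exposure 15 min at 22 °C before imaging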
- TEST PROTOCOL: switch fluorescence ratio, 500 uM ATP over buffer (Cy3 cluster intensity, sum of 5 cycles each) (fold (ratio)); higher = stronger signal-on switching upon ATP binding; sequences stand for … in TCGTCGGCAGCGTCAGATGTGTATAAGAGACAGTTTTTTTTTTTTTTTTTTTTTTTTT…TC
- STATED CONDITIONS: aptamer strand: ATP DNA aptamer (quencher-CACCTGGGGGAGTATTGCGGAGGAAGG + anchor), 100 nM annealed; ATP concentration: 500 uM
Response key: 1 means switch fluorescence ratio >= 1; 0 means switch fluorescence ratio < 1.

Query block: Does TTGAGTAACT have a reported switch fluorescence ratio of at least 1?
Result block: 0

Query block: Does TTCCGTGGGA have a reported switch fluorescence ratio of at least 1?
Result block: 1

Query block: Does TGACTACGCG have a reported switch fluorescence ratio of at least 1?
Result block: 1

Query block: Does CTTCTTCAGC have a reported switch fluorescence ratio of at least 1?
Result block: 1

Query block: Does CGGTATTGTG have a reported switch fluorescence ratio of at least 1?
Result block: 0
